Parameter pEC50: see the listing below.
System: Hepatitis C virus
TEST_PROTOCOL: Antiviral activity against HCV GT1a-genotype assessed as inhibition of viral replication
Type: functional, organism-based, Hepacivirus hominis
pEC50: −log10 of the molar value.

{"columns": ["MOLECULE", "pEC50"],
 "data": [
  ["O=C(O)c1ccc2c(C3CCCCC3)c3n(c2c1)CC(C(=O)N1CCOCC1)Cc1ccccc1-3 (racemic)", 8.70],
  ["CN(C)S(=O)(=O)NC(=O)c1ccc2c(C3CCCCC3)c3n(c2c1)C[C@@]1(C(=O)N2CCOCC2)C[C@H]1c1ccccc1-3", 7.39],
  ["COc1ccc2c(c1)C=C(C(=O)N1CCOCC1)Cn1c-2c(C2CCCCC2)c2ccc(C(=O)NS(=O)(=O)N(C)C)cc21", 7.21],
  ["COc1ccc2c(c1)C=C(C(=O)N1C[C@@H](C)O[C@@H](C)C1)Cn1c-2c(C2CCCCC2)c2ccc(C(=O)NS(=O)(=O)N(C)C)cc21", 7.40],
  ["CN(C)S(=O)(=O)NC(=O)c1ccc2c(C3CCCCC3)c3n(c2c1)C[C@]1(C(=O)N2CCOCC2)C[C@@H]1c1ccccc1-3", 6.33],
  ["COc1ccc2c(c1)[C@@H]1C[C@]1(C(=O)N1C[C@@H](C)O[C@@H](C)C1)Cn1c-2c(C2CCCCC2)c2ccc(C(=O)NS(=O)(=O)N(C)C)cc21", 9.00],
  ["COc1ccc2c(c1)C1CC1(C(=O)N1CC3CCC(C1)N3C)Cn1c-2c(C2CCCCC2)c2ccc(C(=O)NS(=O)(=O)N(C)C)cc21 (racemic)", 7.80],
  ["COc1ccc2c(c1)[C@@H]1C[C@]1(C(=O)N1CC(C)N(C)C(C)C1)Cn1c-2c(C2CCCCC2)c2ccc(C(=O)NS(=O)(=O)N(C)C)cc21 (stereo not given in full)", 9.00],
  ["O=C(O)c1ccc2c(C3CCCCC3)c3n(c2c1)CC(C(=O)N1CCOCC1)=Cc1ccccc1-3", 6.39],
  ["CN(C)S(=O)(=O)NC(=O)c1ccc2c(C3CCCCC3)c3n(c2c1)CC(C(=O)N1CCOCC1)=Cc1ccccc1-3", 6.92]
]}

###

Tested on: Respiratory syncytial virus
TEST_PROTOCOL: Antiviral activity against RSV
Assay type: functional, organism-based
PROTOCOL_CONDITIONS: human respiratory syncytial virus
MEASUREMENT_KIND: EC50 (µM)

{"columns": ["COMPOUND", "MEASUREMENT_KIND", "NUMERIC_READOUT"],
 "data": [
  ["C[C@H](NC(=O)OCc1ccccc1)C(=O)Nc1ccc(C2S/C(=N\\c3cccc(F)c3)N(Cc3ccco3)C2=O)cc1 (stereo partly specified)", "EC50", 23]
]}
